Measurement target: FPRL1 (Homo sapiens, UniProt P25090)
Construct: expressed in transfected cells; host or cells: CHO-Gal6 (CHO cells with G alpha 16)
Sequence (P25090 whole entry, species assumed): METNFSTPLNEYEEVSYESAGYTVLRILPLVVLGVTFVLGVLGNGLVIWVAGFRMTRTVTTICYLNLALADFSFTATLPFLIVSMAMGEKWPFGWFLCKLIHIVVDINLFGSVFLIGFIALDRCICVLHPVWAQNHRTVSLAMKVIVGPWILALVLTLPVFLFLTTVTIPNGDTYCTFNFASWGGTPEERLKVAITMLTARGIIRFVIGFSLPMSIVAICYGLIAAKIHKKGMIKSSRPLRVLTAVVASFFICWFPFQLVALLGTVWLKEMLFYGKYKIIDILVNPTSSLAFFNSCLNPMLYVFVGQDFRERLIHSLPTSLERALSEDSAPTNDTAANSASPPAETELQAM
Experiment description: compound-induced calcium activity on FLIPR Tetra in CHO-Gal6 cells stably expressing FPRL1
Format: cell-based
Condition: calcium, FLIPR Tetra, tested 0.61 to 10,000 nM, read-out: FPRL1 EC50
Measurement kind: log10(EC50) (log10 of the value in nM)
Lab note - EC50 converted to log10 from values in nM.

## Input Field request: log10(EC50) | item: O=C(O)C1C(C(=O)Nc2ccc(Br)cn2)C2C=CC1C21CC1 (racemic) [Compound 25]
## Output 2.17

## Input Please give the measured log10(EC50) for this compound: NC(=O)C1C(C(=O)Nc2ccc(Br)cc2)C2CCC1C21CC1 (racemic) [Compound 46A]
## Output 3.81

## Input What measured log10(EC50) goes with CCc1ccc(NC(=O)[C@H]2[C@@H](C(N)=O)[C@H]3CC[C@@H]2C3(C)C)cc1 (racemic) [Compound 57] ?
## Output 1.54

## Input Item CSc1ccc(NC(=O)C2C(C(N)=O)C3C=CC2C32CC2)cc1 (racemic) [Compound 49] has what recorded log10(EC50)?
## Output 1.99

## Input Give the measured log10(EC50) of O=C(O)C1=C(C(=O)Nc2ccc(Br)cc2)C2C=CC1C21CC1 (racemic) [Compound 72] .
## Output 2.79

## Input Which measured log10(EC50) value corresponds to COC(=O)C1C(C(=O)Nc2ccc(I)cc2)C2C=CC1C21CC1 (racemic) [Compound 16] ?
## Output 2.61

## Input Please look up its log10(EC50): CSc1ccc(NC(=O)[C@H]2[C@@H](C(N)=O)[C@H]3CC[C@@H]2C32CC2)cc1 (racemic) [Compound 67]
## Output 1.20

## Input Entry O=C(O)[C@@H]1[C@H](C(=O)NNc2ccc(Br)cc2)[C@@H]2CC[C@H]1C21CC1 (racemic) [Compound 87] has what log10(EC50)?
## Output 2.66

## Input So what's the measured log10(EC50) for this one? CC(C)=C1[C@H]2C=C[C@@H]1[C@H](C(=O)O)[C@@H]2C(=O)Nc1ccc(Br)cc1 (racemic) [Compound 20]
## Output 1.48

## Input // log10(EC50) lookup, key: CCOC(=O)[C@@H]1[C@H](C(=O)Nc2ccc(Br)cc2)[C@@H]2CC[C@H]1C21CC1 (racemic) [Compound 84]
## Output 3.14

----------
Please provide measured pEC50 for the entries that follow.
Measurement target: FPR1 (Homo sapiens, UniProt P21462)
Construct: expressed in transfected cells; host or cells: HEK-Gqi5 (HEK cells with chimeric G protein Gqi5)
Sequence (P21462 1-350): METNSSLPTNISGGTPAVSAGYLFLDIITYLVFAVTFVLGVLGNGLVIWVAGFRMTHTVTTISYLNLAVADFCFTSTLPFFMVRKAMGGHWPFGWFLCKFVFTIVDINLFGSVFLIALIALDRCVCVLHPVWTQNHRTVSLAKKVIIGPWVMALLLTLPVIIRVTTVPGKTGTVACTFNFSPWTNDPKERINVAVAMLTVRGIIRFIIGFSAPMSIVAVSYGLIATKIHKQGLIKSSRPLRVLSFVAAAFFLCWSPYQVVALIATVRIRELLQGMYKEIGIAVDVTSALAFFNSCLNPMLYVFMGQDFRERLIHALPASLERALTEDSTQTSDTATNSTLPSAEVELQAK
Experiment description: compound-induced calcium activity on FLIPR Tetra in HEK-Gqi5 cells stable expressing FPR1
Assay type: cell-based
Condition: calcium, FLIPR Tetra, tested 0.61 to 10,000 nM, read-out: FPR1 EC50
Keep in mind that pEC50 stands for -log10 of concentration in molar terms.

## Input Entry CSc1ccc(NC(=O)[C@H]2[C@@H](C(=O)O)[C@H]3CC[C@@H]2C32CC2)cc1 (racemic) [Compound 42] , system FPR1 (Homo sapiens, UniProt P21462): what pEC50 was measured?
## Output 5.96

## Input Please tell me: pEC50 of CC1(C)[C@@H]2CC[C@H]1[C@@H](C(=O)Nc1ccc(I)cc1)[C@H]2C(=O)O (racemic) [Compound 12] , system FPR1 (Homo sapiens, UniProt P21462)?
## Output 6.46

## Input Report pEC50 for CC1(C)[C@@H]2CC[C@H]1[C@@H](C(=O)Nc1ccc(Br)cc1)[C@H]2C(=O)O (racemic) [Compound 13] tested on FPR1 (Homo sapiens, UniProt P21462).
## Output 6.19

From: patent US8618163B2
